assay: Plasma pharmacokinetics of BI 187004 after single oral doses (LC–MS/MS); conditions: male, human, plasma, po, 40 mg, BI 187004 plasma concentrations, 40 mg single oral, planned time 4 h, Max
PROPERTY: concentration at 4 h
Please answer using the number first and the unit second.

Query string: Which concentration at 4 h value belongs to N#Cc1ccc2c(c1)[C@H]1CCCN(C(=O)c3ccc4[nH]cnc4c3)[C@H]1C2 ?
Result string: 1700 nM

---

assay: Plasma pharmacokinetics of BI 187004 after single oral doses (LC–MS/MS); settings: male, human, plasma, po, 240 mg
PROPERTY: Vd/F (L)
Answer format: numeric, L implied, no suffix.

Query string: Which Vd/F is listed for N#Cc1ccc2c(c1)[C@H]1CCCN(C(=O)c3ccc4[nH]cnc4c3)[C@H]1C2 ?
Result string: 124

---

assay: Plasma pharmacokinetics of BI 187004 after single oral doses (LC–MS/MS); details: male, human, plasma, po, 5 mg, Plasma concentration Mean, 5 mg single oral; 2 h
PROPERTY: concentration at 2 h (nM)
Please state the figure in nM; there is no need to write the unit.

Query string: So what's the measured concentration at 2 h for this one? N#Cc1ccc2c(c1)[C@H]1CCCN(C(=O)c3ccc4[nH]cnc4c3)[C@H]1C2 [BI 187004]
Result string: 122

---

test: Plasma pharmacokinetics of BI 187004 after single oral doses (LC–MS/MS); conditions: male, human, plasma, po, 40 mg, BI 187004 plasma concentrations, 40 mg single oral, planned time 12 h, Median
PROPERTY: concentration at 12 h (nM)
Quick note: give the figure in nM, leave out the unit.

Query string: Which measured concentration at 12 h value corresponds to N#Cc1ccc2c(c1)[C@H]1CCCN(C(=O)c3ccc4[nH]cnc4c3)[C@H]1C2 ?
Result string: 690

---

assay: Plasma pharmacokinetics of BI 187004 after single oral doses (LC–MS/MS); details: male, human, plasma, po, 80 mg, BI 187004 plasma concentrations, 80 mg single oral, planned time 3 h, Max
PROPERTY: concentration at 3 h (µM)
A number alone suffices; assume µM.

Query string: Item N#Cc1ccc2c(c1)[C@H]1CCCN(C(=O)c3ccc4[nH]cnc4c3)[C@H]1C2 has what recorded concentration at 3 h?
Result string: 3.34

---

test: Plasma pharmacokinetics of BI 187004 after single oral doses (LC–MS/MS); conditions: male, human, plasma, po, 2.5 mg, Plasma concentration Mean, 2.5 mg single oral; 1.5 h
PROPERTY: concentration at 1.5 h (nM)
Give the quantity in nM, number only.

Query string: Reported concentration at 1.5 h for N#Cc1ccc2c(c1)[C@H]1CCCN(C(=O)c3ccc4[nH]cnc4c3)[C@H]1C2 [BI 187004] : what is it?
Result string: 11.2

---

experiment: Plasma pharmacokinetics of BI 187004 after single oral doses (LC–MS/MS); settings: male, human, plasma, po, 240 mg, BI 187004 plasma concentrations, Median, 240 mg single oral, planned time 5 h
PROPERTY: concentration at 5 h (µM)
Could you give me the number in µM? Just the number is fine.

Query string: I am curious: what concentration at 5 h value has been reported for N#Cc1ccc2c(c1)[C@H]1CCCN(C(=O)c3ccc4[nH]cnc4c3)[C@H]1C2 ?
Result string: 5.43

---

assay: Plasma pharmacokinetics of BI 187004 after single oral doses (LC–MS/MS); details: male, human, plasma, po, 5 mg, Plasma concentration Mean, 5 mg single oral; 6 h
PROPERTY: concentration at 6 h (nM)
Give the number; nM is assumed, so skip it.

Query string: Could you share which concentration at 6 h value was measured for N#Cc1ccc2c(c1)[C@H]1CCCN(C(=O)c3ccc4[nH]cnc4c3)[C@H]1C2 [BI 187004] ?
Result string: 81.2
